B1: GFOD1 (parent)
chain: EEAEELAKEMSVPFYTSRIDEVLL

variants of: B1; experiment: protein stability index of a GFP-peptide fusion (GPS, HEK-293T) (PSI 1-6); higher = more stable; conditions: c terminus: a fixed tail appended;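 further: lentivirally expressed fusions sorted by FACS into six bins by GFP to DsRed ratio, PSI derived from sequencing read proportions per bin multiplied by bin number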
value type: protein stability index
Simply state the number, no unit and no words.

Examples from the recorded data:
mutant id | value type | number
P13R | protein stability index | 4.11
L24N | protein stability index | 4.6

Q) Bench note: what protein stability index did "T16D" show?
A) 4.33

Q) Bench note: what protein stability index did "E9Q" show?
A) 3.17

Q) Bench note: what protein stability index did "S11Q" show?
A) 4.04
